- system.under.test: human TLR8 (Homo sapiens)
- Sequence (Q9NR97 27-1041): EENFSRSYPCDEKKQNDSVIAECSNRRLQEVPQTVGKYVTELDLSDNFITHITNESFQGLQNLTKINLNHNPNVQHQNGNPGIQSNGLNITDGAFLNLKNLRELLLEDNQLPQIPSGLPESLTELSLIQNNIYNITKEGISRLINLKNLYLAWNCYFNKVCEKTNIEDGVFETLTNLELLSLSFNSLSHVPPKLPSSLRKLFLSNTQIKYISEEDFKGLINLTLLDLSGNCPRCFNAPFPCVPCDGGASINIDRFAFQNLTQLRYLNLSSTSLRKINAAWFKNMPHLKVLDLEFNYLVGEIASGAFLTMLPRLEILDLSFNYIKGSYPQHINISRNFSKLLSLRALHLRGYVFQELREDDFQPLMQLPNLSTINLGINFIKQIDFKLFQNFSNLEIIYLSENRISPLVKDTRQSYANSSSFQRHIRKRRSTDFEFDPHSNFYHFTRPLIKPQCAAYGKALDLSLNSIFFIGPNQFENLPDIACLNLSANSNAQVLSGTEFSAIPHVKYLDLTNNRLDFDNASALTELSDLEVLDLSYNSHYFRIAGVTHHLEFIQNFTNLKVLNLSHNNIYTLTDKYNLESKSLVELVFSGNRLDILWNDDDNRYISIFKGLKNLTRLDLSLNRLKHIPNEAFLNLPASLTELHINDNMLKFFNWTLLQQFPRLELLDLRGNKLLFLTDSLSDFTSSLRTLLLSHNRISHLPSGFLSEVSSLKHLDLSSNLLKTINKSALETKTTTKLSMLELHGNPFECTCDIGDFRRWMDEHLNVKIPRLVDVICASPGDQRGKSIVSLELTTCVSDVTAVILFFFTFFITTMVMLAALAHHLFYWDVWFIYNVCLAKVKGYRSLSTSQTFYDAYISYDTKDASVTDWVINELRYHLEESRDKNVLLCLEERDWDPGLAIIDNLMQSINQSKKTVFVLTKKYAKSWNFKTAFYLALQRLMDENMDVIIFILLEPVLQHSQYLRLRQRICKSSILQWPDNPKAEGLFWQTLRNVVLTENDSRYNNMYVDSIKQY
- assay.notes: TLR8 inhibition reporter assay (HEK-Blue cells, SEAP reporter)
- study.conditions: HEK-Blue cells overexpressing human TLR8; stimulated with R848 15.9 μM; SEAP after 22 hour incubation
readout.label: IC50 (µM)
Write the number in µM without appending the unit.

# molecule, reading
data = [
    ("CC(C)N1CCN(c2ccc(-c3cnc4cc(-c5ccc(S(C)(=O)=O)cc5)n(C)c4c3)cc2)[C@H](C)C1 [Example 28]", 5),
    ("CC(C)N1CCN(c2ccc(-c3cnc4cc(-c5ccc(S(C)(=O)=O)cc5)n(C)c4c3)cc2)C[C@@H]1C [Example 29]", 2.3),
]

Qu. Look at this molecule and give its reported IC50. CC(C)N1CCN(Cc2ccc(-c3cnc4cc(-c5ccc(S(C)(=O)=O)cc5)n(C)c4c3)cc2)CC1 [Example 23]
Ans. 23.2

Qu. Look at this molecule and give its reported IC50. COc1ccc(-c2cc3ncc(-c4ccc(N5CCN(C(C)C)CC5)nc4)cc3n2C)cc1OC [Example 9]
Ans. 8.7

Qu. Look at this molecule and give its reported IC50. CC(C)N1CCN(c2ccc(-c3cnc4cc(-c5ccc(S(C)(=O)=O)cc5)n(C)c4c3)cc2)CC1 [Example 2]
Ans. 7.6

====

- system.under.test: human TLR9 (Homo sapiens, UniProt Q9NR96)
- Sequence (Q9NR96 26-1032): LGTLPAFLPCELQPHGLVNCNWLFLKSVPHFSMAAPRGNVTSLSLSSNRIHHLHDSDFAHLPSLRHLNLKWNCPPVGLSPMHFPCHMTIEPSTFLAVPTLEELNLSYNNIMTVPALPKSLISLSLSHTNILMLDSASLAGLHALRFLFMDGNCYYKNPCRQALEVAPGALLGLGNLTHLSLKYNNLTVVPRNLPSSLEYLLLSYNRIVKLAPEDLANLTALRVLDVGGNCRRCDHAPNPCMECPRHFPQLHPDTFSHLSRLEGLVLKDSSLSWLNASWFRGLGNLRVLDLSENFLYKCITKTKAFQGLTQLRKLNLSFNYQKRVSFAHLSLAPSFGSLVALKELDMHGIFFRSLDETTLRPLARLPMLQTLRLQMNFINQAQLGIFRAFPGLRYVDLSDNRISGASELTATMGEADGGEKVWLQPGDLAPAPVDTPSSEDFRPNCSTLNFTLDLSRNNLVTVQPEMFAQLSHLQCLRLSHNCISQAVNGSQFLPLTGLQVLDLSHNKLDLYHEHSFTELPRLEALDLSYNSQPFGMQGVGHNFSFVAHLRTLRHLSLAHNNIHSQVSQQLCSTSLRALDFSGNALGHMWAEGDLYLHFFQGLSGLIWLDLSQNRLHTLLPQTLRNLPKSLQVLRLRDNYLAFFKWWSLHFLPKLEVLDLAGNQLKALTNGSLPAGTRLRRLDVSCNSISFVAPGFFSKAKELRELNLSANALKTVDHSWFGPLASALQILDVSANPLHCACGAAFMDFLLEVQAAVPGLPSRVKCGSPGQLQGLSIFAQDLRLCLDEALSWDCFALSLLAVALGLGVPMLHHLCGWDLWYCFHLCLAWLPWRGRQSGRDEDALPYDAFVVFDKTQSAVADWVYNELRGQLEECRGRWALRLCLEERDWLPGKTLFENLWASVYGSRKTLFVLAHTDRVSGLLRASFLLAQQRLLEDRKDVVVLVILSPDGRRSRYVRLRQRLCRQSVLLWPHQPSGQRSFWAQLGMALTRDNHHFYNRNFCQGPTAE
- assay.notes: TLR9 inhibition reporter assay (HEK-Blue cells, SEAP reporter)
- study.conditions: HEK-Blue cells overexpressing human TLR9; stimulated with ODN2006 5 nM; SEAP after 22 hour incubation
readout.label: IC50 (nM)
Write the number in nM without appending the unit.

# mol.smiles, IC50 / nM
records = [
    ("CC(C)N1CCN(c2ccc(-c3cnc4cc(-c5ccc(S(C)(=O)=O)cc5F)n(C)c4c3)cc2)CC1", 157),
]

Qu. Look at this compound and give its reported IC50. Cn1c(-c2ccc(S(C)(=O)=O)cc2)cc2ncc(-c3ccc(CN4CCC(C)(O)CC4)cc3)cc21
Ans. 339

Qu. Look at this compound and give its reported IC50. COc1cc(-c2cc3ncc(-c4ccc(N5CCN(C(C)C)CC5)cc4)cc3n2C)ccc1C#N
Ans. 505

Qu. Look at this compound and give its reported IC50. COc1ccc(-c2cc3ncc(-c4ccc(N5CCN(CC(C)(C)O)CC5)cc4)cc3n2C)cc1OC
Ans. 256

Qu. Look at this compound and give its reported IC50. CC(C)N1CCN(c2ccc(-c3cnc4cc(-c5ccc(S(C)(=O)=O)cc5)n(C)c4c3)cc2)C[C@H]1C
Ans. 243

Qu. Look at this compound and give its reported IC50. COc1ccc(-c2cc3ncc(-c4ccc(N5CCN(C(C)C)CC5)cc4)cc3n2C)cc1OC
Ans. 94

Qu. Look at this compound and give its reported IC50. CC(C)N1C[C@@H](C)N(c2ccc(-c3cnc4cc(-c5ccc(S(C)(=O)=O)cc5)n(C)c4c3)cc2)[C@@H](C)C1
Ans. 383

====

- system.under.test: human TLR8 (Homo sapiens, UniProt Q9NR97)
- Sequence (Q9NR97 27-1041): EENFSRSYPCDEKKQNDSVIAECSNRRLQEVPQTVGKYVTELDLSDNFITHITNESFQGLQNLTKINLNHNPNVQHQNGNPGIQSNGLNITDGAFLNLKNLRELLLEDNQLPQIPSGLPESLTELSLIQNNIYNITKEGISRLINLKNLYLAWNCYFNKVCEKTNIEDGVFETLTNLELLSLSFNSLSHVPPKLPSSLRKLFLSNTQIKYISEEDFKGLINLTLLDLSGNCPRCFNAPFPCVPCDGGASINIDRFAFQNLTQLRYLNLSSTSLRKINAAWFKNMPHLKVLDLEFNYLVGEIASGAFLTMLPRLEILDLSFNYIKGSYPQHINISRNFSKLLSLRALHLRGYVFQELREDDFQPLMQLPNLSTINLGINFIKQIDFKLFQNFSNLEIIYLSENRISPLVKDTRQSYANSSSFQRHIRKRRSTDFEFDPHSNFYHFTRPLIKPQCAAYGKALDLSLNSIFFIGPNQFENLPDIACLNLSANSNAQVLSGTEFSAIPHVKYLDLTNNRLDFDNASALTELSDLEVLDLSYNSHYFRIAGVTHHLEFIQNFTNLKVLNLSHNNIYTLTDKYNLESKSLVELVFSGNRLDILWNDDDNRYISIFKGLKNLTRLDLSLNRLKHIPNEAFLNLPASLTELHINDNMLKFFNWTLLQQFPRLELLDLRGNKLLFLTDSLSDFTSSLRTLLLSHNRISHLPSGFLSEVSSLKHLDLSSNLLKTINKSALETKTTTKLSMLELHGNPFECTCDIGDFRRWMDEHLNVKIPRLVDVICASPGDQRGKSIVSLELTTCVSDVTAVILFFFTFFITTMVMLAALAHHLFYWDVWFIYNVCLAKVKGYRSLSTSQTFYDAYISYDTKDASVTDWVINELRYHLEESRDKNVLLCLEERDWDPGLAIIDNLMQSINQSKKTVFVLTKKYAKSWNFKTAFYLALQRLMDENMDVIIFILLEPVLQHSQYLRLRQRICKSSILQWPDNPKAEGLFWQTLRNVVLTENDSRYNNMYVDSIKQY
- assay.notes: TLR8 inhibition reporter assay (HEK-Blue cells, SEAP reporter)
- study.conditions: HEK-Blue cells overexpressing human TLR8; stimulated with R848 15.9 μM; SEAP after 22 hour incubation
Known IC50 of a selection of compounds
Write the number in µM without appending the unit.

Check out these entries, answers already filled in.
# compound, IC50 / µM
measured = [
    ("CC(C)N1C2CCC1CN(c1ccc(-c3cnc4cc(-c5ccc(S(C)(=O)=O)cc5F)n(C)c4c3)cc1)C2", 7.8),
    ("CC(C)N1CCN(c2ccc(-c3cnc4cc(-c5ccc(S(C)(=O)=O)cc5)n(C)c4c3)cc2)[C@@H](C)C1", 5.3),
    ("Cn1c(-c2ccc(S(C)(=O)=O)cc2F)cc2ncc(-c3ccc(N4CCN5CCCC5C4)cc3)cc21 (stereo not drawn)", 2.8),
    ("Cn1c(-c2ccc(S(C)(=O)=O)cc2)cc2ncc(-c3ccc(CN4CCC(C)(O)CC4)cc3)cc21", 14.6),
]

Qu. Look at this compound and give its reported IC50. CCN1CCN(Cc2ccc(-c3cnc4cc(-c5ccc(S(C)(=O)=O)cc5)n(C)c4c3)cc2)CC1
Ans. 43.8

====

- system.under.test: human TLR7 (Homo sapiens)
- Construct: host or cells: HEK-Blue cells (HEK293-derived reporter line)
- Sequence (Q9NYK1 27-1049): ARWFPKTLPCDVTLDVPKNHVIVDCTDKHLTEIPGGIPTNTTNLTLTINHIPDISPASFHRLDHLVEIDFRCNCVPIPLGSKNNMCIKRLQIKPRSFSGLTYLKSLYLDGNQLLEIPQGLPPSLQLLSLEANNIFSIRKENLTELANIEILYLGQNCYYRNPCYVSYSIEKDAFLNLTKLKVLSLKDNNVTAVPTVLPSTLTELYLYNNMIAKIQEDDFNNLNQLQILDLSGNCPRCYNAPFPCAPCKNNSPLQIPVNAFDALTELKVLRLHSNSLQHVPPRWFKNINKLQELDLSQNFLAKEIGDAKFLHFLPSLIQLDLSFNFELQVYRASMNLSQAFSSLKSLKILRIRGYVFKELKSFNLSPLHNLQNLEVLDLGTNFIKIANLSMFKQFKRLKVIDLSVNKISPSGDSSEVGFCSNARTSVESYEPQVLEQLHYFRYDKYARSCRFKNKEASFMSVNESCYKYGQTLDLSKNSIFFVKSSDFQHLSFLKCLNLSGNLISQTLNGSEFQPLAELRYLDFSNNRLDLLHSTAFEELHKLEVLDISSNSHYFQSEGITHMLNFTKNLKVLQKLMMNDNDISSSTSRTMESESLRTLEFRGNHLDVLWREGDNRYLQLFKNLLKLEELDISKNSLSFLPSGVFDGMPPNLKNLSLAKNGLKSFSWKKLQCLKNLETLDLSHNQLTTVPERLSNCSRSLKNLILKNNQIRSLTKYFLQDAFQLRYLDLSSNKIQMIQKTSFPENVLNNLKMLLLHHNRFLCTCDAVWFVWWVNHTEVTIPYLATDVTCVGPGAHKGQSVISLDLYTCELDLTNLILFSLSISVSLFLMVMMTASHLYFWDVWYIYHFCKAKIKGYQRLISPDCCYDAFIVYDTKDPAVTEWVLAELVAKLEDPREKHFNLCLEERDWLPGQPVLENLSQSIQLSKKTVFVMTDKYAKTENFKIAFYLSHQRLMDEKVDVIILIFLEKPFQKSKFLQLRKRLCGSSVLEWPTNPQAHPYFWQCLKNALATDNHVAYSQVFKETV
- assay.notes: TLR7 inhibition reporter assay (HEK-Blue cells, SEAP reporter)
- Assay type: cell-based
- study.conditions: HEK-Blue cells overexpressing human TLR7; stimulated with gardiquimod 7.5 μM; SEAP after 22 hour incubation
- Source text: TLR7/8/9 Inhibition Reporter Assays HEK-Blue™-cells (Invivogen) overexpressing human TLR7, TLR8 or TLR9 receptors were used for screening inhibitors of these receptors using an inducible SEAP (secreted embryonic alkaline phosphatase) reporter gene under the control of the IFN-β minimal promoter fused to five NF-κB and AP-1-binding sites. […]
readout.label: pIC50
When answering, recall that pIC50 equals minus log10 of the concentration in mol/L, and write that number alone.

Check out these entries, answers already filled in.
# molecule, pIC50
data = [
    ("CC(C)CN1[C@@H]2CC[C@H]1C[C@@H](N1CCC(c3cnc4cc(-c5ccc(S(=O)(=O)C6CC6)cc5)n(C)c4c3)CC1)C2 [Example 37]", 5.96),
    ("CC(C)N1C[C@H](C)N(c2ccc(-c3cnc4cc(-c5ccc(S(C)(=O)=O)cc5)n(C)c4c3)cc2)[C@@H](C)C1 [Example 31]", 5.60),
    ("CC(C)N1CCN(c2ccc(-c3cnc4cc(-c5ccc(S(C)(=O)=O)cc5)[nH]c4c3)cc2)CC1 [Example 11]", 5.72),
    ("COc1ccc(-c2cc3ncc(-c4ccc(N5CCN(C(C)C)CC5)nc4)cc3n2C)cc1OC [Example 9]", 5.33),
    ("CN(C)C1CCN(Cc2ccc(-c3cnc4cc(-c5ccc(S(C)(=O)=O)cc5)n(C)c4c3)cc2)CC1 [Example 24]", 5.31),
    ("CC(C)CN1CCN(c2ccc(-c3cnc4cc(-c5ccc(S(C)(=O)=O)cc5)[nH]c4c3)cc2)CC1 [Example 14]", 4.53),
    ("CC(C)CN1[C@@H]2CC[C@H]1CC(N1CCC(c3cnc4cc(-c5ccc(S(C)(=O)=O)cc5)n(C)c4c3)CC1)C2 (some centres unmarked) [Example 36]", 4.98),
    ("Cn1c(-c2ccc(S(C)(=O)=O)cc2)cc2ncc(-c3ccc(CN4CCN(CC(C)(C)O)CC4)cc3)cc21 [Example 21]", 5.02),
    ("CC(C)N1CCN(c2ccc(-c3cnc4cc(-c5ccc(S(C)(=O)=O)cc5F)n(C)c4c3)cc2)CC1 [Example 41]", 5.00),
    ("Cn1c(-c2ccc(S(C)(=O)=O)cc2)cc2ncc(-c3ccc(CN4CCN(CCC(C)(C)O)CC4)cc3)cc21 [Example 19]", 5.10),
]

Qu. Look at this molecule and give its reported pIC50. COc1ccc(-c2cc3ncc(-c4ccc(N5CCN(C(C)C)CC5)cc4)cc3n2C)cc1OC [Example 1]
Ans. 5.15

Qu. Look at this molecule and give its reported pIC50. Cn1c(-c2ccc(S(C)(=O)=O)cc2)cc2ncc(-c3ccc(N4CCN(CCC(C)(C)O)CC4)cc3)cc21 [Example 16]
Ans. 5.06

Qu. Look at this molecule and give its reported pIC50. CC(C)N1CCN(c2ccc(-c3cnc4cc(-c5ccc(S(C)(=O)=O)cc5)n(C)c4c3)cc2)C[C@@H]1C [Example 29]
Ans. 5.48

Qu. Look at this molecule and give its reported pIC50. Cn1c(-c2ccc(S(C)(=O)=O)cc2)cc2ncc(-c3ccc(CN4CCC(C)(O)CC4)cc3)cc21 [Example 22]
Ans. 5.10

Qu. Look at this molecule and give its reported pIC50. COc1ccc(-c2cc3ncc(-c4ccc(N5CCNCC5)cc4)cc3n2C)cc1OC [Example 13]
Ans. 5.52

Qu. Look at this molecule and give its reported pIC50. COc1ccc(-c2cc3ncc(-c4ccc(N5CCN(C(C)C)CC5)cc4)cc3n2C)cc1F [Example 10]
Ans. 4.81

Qu. Look at this molecule and give its reported pIC50. CC(C)N1CCN(c2ccc(-c3cc4nc(-c5ccc(S(C)(=O)=O)cc5)cc-4n(C)c3)cc2)CC1 [Example 3]
Ans. 5.01

Qu. Look at this molecule and give its reported pIC50. COc1ccc(-c2cc3ncc(-c4ccc(N5CCN(CC6CC6)CC5)cc4)cc3n2C)cc1OC [Example 8]
Ans. 4.84

Qu. Look at this molecule and give its reported pIC50. CC(C)N1CCN(c2ccc(-c3cnc4cc(-c5ccc(S(C)(=O)=O)cc5)n(C)c4c3)cc2)C[C@H]1C [Example 32]
Ans. 4.94

Qu. Look at this molecule and give its reported pIC50. COc1ccc(-c2cc3ncc(-c4ccc(C(=O)N5CCN(C(C)C)CC5)cc4)cc3n2C)cc1OC [Example 5]
Ans. 5.14

Qu. Look at this molecule and give its reported pIC50. CC(C)N1CCN(c2ccc(-c3cnc4cc(-c5ccc(S(C)(=O)=O)cc5)n(C)c4c3)cc2)[C@H](C)C1 [Example 28]
Ans. 5.49

Qu. Look at this molecule and give its reported pIC50. CC(C)N1C[C@@H](C)N(c2ccc(-c3cnc4cc(-c5ccc(S(C)(=O)=O)cc5)n(C)c4c3)cc2)[C@@H](C)C1 [Example 33]
Ans. 5.42
